Target: T1, TNFR1 (Homo sapiens, UniProt P19438)
T1 chain: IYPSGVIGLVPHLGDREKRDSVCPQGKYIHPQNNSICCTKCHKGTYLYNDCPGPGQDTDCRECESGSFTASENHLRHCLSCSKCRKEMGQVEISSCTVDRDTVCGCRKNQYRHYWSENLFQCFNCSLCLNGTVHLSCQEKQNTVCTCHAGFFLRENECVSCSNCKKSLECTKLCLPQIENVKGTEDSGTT
Experiment: yeast display SC50
quantity: apparent Kd (screen)

| binder | quantity | obs.value |
| --- | --- | --- |
| L39H (designed binder) MTLQELLREEALRRAEAEAFRYALELLAEKFPEQKEYLHDLAEEIESQIRSLSGVDVEDVRKFLDKEWAWVKELLAEHPAELAEVEAARAARLAELRAEVEAKVAA | apparent Kd (screen) | 2.48 nM |
| A90D (designed binder) MTLQELLREEALRRAEAEAFRYALELLAEKFPEQKEYLLDLAEEIESQIRSLSGVDVEDVRKFLDKEWAWVKELLAEHPAELAEVEAARDARLAELRAEVEAKVAA | apparent Kd (screen) | 0.446 nM |
